Test Summary: in vitro
Experimental Setup: human
I'd be grateful if you could share measured CC50 for these entries.

**Query** In one line, give reported CC50 of the entry O=c1c(-c2ccccc2)c(O)c2cc(-c3ccc(Oc4ccccc4)cc3)cnc2n1O .
**Result** > 250 µM

**Query** Name the recorded CC50 of the molecule listed here: O=c1c(-c2ccccc2)c(O)c2cc(-c3ccccc3)cnc2n1O
**Result** > 250 µM

**Query** Indicate the recorded CC50 value for this molecule: O=c1c(-c2ccccc2)c(O)c2c(-c3cccc(-c4ccccc4)c3)ccnc2n1O
**Result** 150 µM

**Query** Using the record for CCCCCCCCCCCCCCCCOCCCOP(=O)(O)CO[C@H](CO)Cn1ccc(N)nc1=O [Brincidofovir, brincidofovir, reference compound] , state its measured CC50.
**Result** > 250 µM

Hello, the source for this data is paper PMC12796986, in case you need it.
